Molecular target: CDK2/Cyclin E1 full length (Homo sapiens (Human), UniProt P24941)
Assay: CDK2/Cyclin E1 full length mobility shift assay
Format: biochemical
Please use MET for Ki under 0.8 nM and NOT MET for everything else, ties included.

Example results:
INSERT INTO assay_data (compound, group_label) VALUES
  ('Cc1cc(CC(=O)Nc2cc([C@@H]3CC[C@H](OC(=O)N[C@H]4CC[C@@H](O)CC4)C3)[nH]n2)ccn1 [Example 544]', 'MET'),
  ('CCCNC(=O)O[C@@H]1CC[C@H](c2cc(NC(=O)Cc3ccc(C)cc3S(C)(=O)=O)n[nH]2)C1 [Example 207]', 'MET'),
  ('CC(C)NC(=O)O[C@@H]1CC[C@H](c2cc(NC(=O)c3cnnn3C)n[nH]2)C1 [Example 262]', 'MET'),
  ('Cc1cnc(CC(=O)Nc2cc([C@H]3CC[C@@H](OC(=O)NC(C)CC(F)(F)F)C3)[nH]n2)o1 (single isomer, unassigned) [Example 82]', 'MET'),
  ('Cc1cc(CC(=O)Nc2cc([C@H]3CC[C@@H](OC(=O)N4CCOC[C@H]4C)C3)[nH]n2)on1 [Example 643]', 'NOT MET');

Query compound follows.
For CCCNC(=O)O[C@@H]1CC[C@H](c2cc(NC(=O)Cc3ccc(COC)cc3S(C)(=O)=O)[nH]n2)C1 [Example 215] , is the recorded Ki below the cut-off of 0.8 nM?
NOT MET

----------
Biological target: GSK3β (H350L) (Homo sapiens (Human), UniProt P49841)
Sequence (P49841 whole entry, stated change not applied): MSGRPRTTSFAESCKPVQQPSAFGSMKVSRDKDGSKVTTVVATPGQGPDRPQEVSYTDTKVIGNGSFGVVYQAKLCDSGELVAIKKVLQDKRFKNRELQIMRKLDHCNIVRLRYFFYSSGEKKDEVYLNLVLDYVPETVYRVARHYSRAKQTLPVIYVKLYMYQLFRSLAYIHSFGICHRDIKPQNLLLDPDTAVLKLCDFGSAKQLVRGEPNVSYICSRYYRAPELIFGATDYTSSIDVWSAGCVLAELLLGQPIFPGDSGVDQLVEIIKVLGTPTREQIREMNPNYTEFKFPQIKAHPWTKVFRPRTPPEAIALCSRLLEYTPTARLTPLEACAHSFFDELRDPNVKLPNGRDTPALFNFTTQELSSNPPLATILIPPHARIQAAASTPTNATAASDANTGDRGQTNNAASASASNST
Settings: read-out: GSK3β Ki
Quick reference: Ki of the listed items.
# output: bare number, implied unit nM

Here is how some compounds turned out for Ki.
INSERT INTO results (compound, value_reported) VALUES
  ('Cc1ccc(CC(=O)Nc2cc([C@@H]3CC[C@H](OC(=O)N[C@H]4CC[C@H](O)CC4)C3)[nH]n2)nc1 [Example 549]', 3.24),
  ('COc1ccc(CC(=O)Nc2cc([C@H]3CC[C@@H](OC(=O)N4C[C@H](O)[C@H]4C)C3)[nH]n2)cn1 [Example 616]', 4.05),
  ('CC(C)NC(=O)O[C@@H]1CC[C@H](c2cc(NC(=O)Cc3cc(F)cc(F)c3)n[nH]2)C1 [Example 279]', 53.2),
  ('Cc1ccc(CC(=O)Nc2cc([C@@H]3CC[C@H](OC(=O)N[C@H]4CC[C@H](O)CC4)C3)[nH]n2)cn1 [Example 548]', 2.1),
  ('Cn1cc(CC(=O)Nc2cc([C@H]3CC[C@@H](OC(=O)NC4(C)CCC4)C3)[nH]n2)cn1 [Example 119]', 19.3);

Endpoint output: Ki of CC[C@H](C)NC(=O)O[C@@H]1CC[C@H](c2cc(NC(=O)Cc3cncc(C)n3)n[nH]2)C1 [Example 336] . Value?
53.5

# get_value(readout='Ki', item= CC1(NC(=O)O[C@@H]2CC[C@H](c3cc(NC(=O)Cc4ccno4)n[nH]3)C2)CC1 [Example 128] )
55.4

----------
Target: GSK3β (H350L) (Homo sapiens (Human), UniProt P49841)
Settings: read-out: GSK3β Ki
ASSAY ENDPOINT: Ki
Express the reported value numerically, then name its unit.

Solved entries:
INSERT INTO measurements (compound, assay_endpoint, value_reported) VALUES
  ('COc1cc(CC(=O)Nc2cc([C@H]3CC[C@@H](OC(=O)N4C[C@@H](OC)[C@@H]4C)C3)[nH]n2)ccn1', 'Ki', '0.00575 µM'),
  ('Cc1cc(CC(=O)Nc2cc([C@H]3CC[C@@H](OC(=O)N4CCCC4(C)C)C3)[nH]n2)on1', 'Ki', '0.00712 µM'),
  ('CC(C)NC(=O)O[C@H]1CC[C@@H](c2cc(NC(=O)Cc3ccno3)n[nH]2)C1', 'Ki', '0.0319 µM');

Moving on to another molecule below.
Give GSK3β (H350L) (Homo sapiens (Human), UniProt P49841) Ki for Cc1cnc(CC(=O)Nc2cc([C@H]3CC[C@@H](OC(=O)N4CCC[C@@H]4C)C3)[nH]n2)o1
0.0163 µM

----------
Biological target: CDK2/Cyclin E1 full length (Homo sapiens (Human), UniProt P24941)
Assay: CDK2/Cyclin E1 full length mobility shift assay
ASSAY ENDPOINT: Ki (nM)
Kindly provide the numeric value in nM only, without the unit symbol.

Please review the following examples before continuing.
INSERT INTO assay_data (molecule, assay_endpoint, unit_string, value_reported) VALUES
  ('Cc1cc(CC(=O)Nc2cc([C@H]3CC[C@@H](OC(=O)N4[C@@H](C)C[C@@H]4C)C3)[nH]n2)on1', 'Ki', 'nM', 0.25),
  ('CCC(NC(=O)O[C@@H]1CC[C@H](c2cc(NC(=O)Cc3cc(C)no3)n[nH]2)C1)C(F)(F)F (single isomer, unassigned) [Example 397]', 'Ki', 'nM', 1.87),
  ('COc1ccc(CC(=O)Nc2cc([C@@H]3CC[C@H](OC(=O)N[C@H]4CC[C@@H](O)CC4)C3)[nH]n2)cn1', 'Ki', 'nM', 0.41),
  ('CCCNC(=O)O[C@H]1CC[C@@H](c2cc(NC(=O)Cc3cn4ccccc4n3)n[nH]2)C1', 'Ki', 'nM', 3.33),
  ('COc1cc(CC(=O)Nc2cc([C@H]3CC[C@@H](OC(=O)N4C[C@@H](C#N)[C@@H]4C)C3)[nH]n2)ccn1 (single isomer, unassigned) [Example 156]', 'Ki', 'nM', 2.21),
  ('COCCn1nccc1C(=O)Nc1cc([C@H]2CC[C@@H](OC(=O)NC(C)CC(F)(F)F)C2)[nH]n1 (single isomer, unassigned) [Example 88]', 'Ki', 'nM', 0.15),
  ('COc1ccc(CC(=O)Nc2cc([C@H]3CC[C@@H](OC(=O)N[C@H]4CC[C@](C)(O)CC4)C3)[nH]n2)cc1', 'Ki', 'nM', 1.61),
  ('CC1(NC(=O)O[C@@H]2CC[C@H](c3cc(NC(=O)CC4COc5ccccc54)n[nH]3)C2)CCOC1 (single isomer, unassigned) [Example 492]', 'Ki', 'nM', 2.39),
  ('COCc1cc(C(=O)Nc2cc([C@H]3CC[C@@H](OC(=O)NC(C)CC(F)(F)F)C3)[nH]n2)n(C)n1 (single isomer, unassigned) [Example 10]', 'Ki', 'nM', 0.25),
  ('CC(C)NC(=O)O[C@@H]1CC[C@H](c2cc(NC(=O)Cc3ccc(C(F)(F)F)cn3)n[nH]2)C1', 'Ki', 'nM', 4.14);

Test system CDK2/Cyclin E1 full length (Homo sapiens (Human), UniProt P24941); read-out Ki; what value for Cc1ccc(CC(=O)Nc2cc([C@@H]3CC[C@H](OC(=O)N[C@H]4CC[C@@H](O)CC4)C3)[nH]n2)nc1 ?
1.85

Could you share what Ki was measured for CC1(NC(=O)O[C@@H]2CC[C@H](c3cc(NC(=O)Cc4cn(CC(F)(F)F)nn4)n[nH]3)C2)CC1 , tested on CDK2/Cyclin E1 full length (Homo sapiens (Human), UniProt P24941)?
1.7

Notebook entry, CDK2/Cyclin E1 full length (Homo sapiens (Human), UniProt P24941) assay: Ki of CC(CC(F)(F)F)NC(=O)O[C@@H]1CC[C@H](c2cc(NC(=O)Cc3cnn(C(C)C)c3)n[nH]2)C1 (single isomer, unassigned) [Example 407] = ?
1.16

Report Ki for CCC(CO)CNC(=O)O[C@@H]1CC[C@H](c2cc(NC(=O)Cc3ccc(OC)cc3)n[nH]2)C1 (single isomer, unassigned) [Example 531] tested on CDK2/Cyclin E1 full length (Homo sapiens (Human), UniProt P24941).
1.51

Find the measured Ki: item CC(C)(C)NC(=O)O[C@@H]1CC[C@H](c2cc(NC(=O)Cc3ccccn3)n[nH]2)C1 , target or system CDK2/Cyclin E1 full length (Homo sapiens (Human), UniProt P24941).
0.62

Recall the recorded Ki for CCCNC(=O)O[C@H]1CC[C@@H](c2cc(NC(=O)Cc3cncs3)n[nH]2)C1 with CDK2/Cyclin E1 full length (Homo sapiens (Human), UniProt P24941) and state it.
0.21

Param readout = Ki; param system = CDK2/Cyclin E1 full length (Homo sapiens (Human), UniProt P24941); param query = CC[C@H](C)NC(=O)O[C@@H]1CC[C@H](c2cc(NC(=O)Cc3ccccc3S(=O)(=O)CC)n[nH]2)C1 ; response: value
0.24

Value wanted: Ki (CDK2/Cyclin E1 full length (Homo sapiens (Human), UniProt P24941)) of entry COc1cc(CC(=O)Nc2cc([C@@H]3CC[C@H](OC(N)=O)C3)[nH]n2)ccn1
4.2

Write down the reported Ki of COc1cnc(CC(=O)Nc2cc([C@H]3CC[C@@H](OC(=O)NCCC(F)(F)F)C3)[nH]n2)cn1 , test system: CDK2/Cyclin E1 full length (Homo sapiens (Human), UniProt P24941).
2.93

# returns recorded Ki (system: CDK2/Cyclin E1 full length (Homo sapiens (Human), UniProt P24941)) for O=C(Cc1ccno1)Nc1cc([C@H]2CC[C@@H](OC(=O)NC3CCC3)C2)[nH]n1
3.07

Identify the measured Ki of Cc1ncc(CC(=O)Nc2cc([C@H]3CC[C@@H](OC(=O)N4C[C@@H](C#N)[C@@H]4C)C3)[nH]n2)s1 (single isomer, unassigned) [Example 160] for CDK2/Cyclin E1 full length (Homo sapiens (Human), UniProt P24941).
0.15

Lab request: please report Ki under test system CDK2/Cyclin E1 full length (Homo sapiens (Human), UniProt P24941) for CCCNC(=O)O[C@H]1CC[C@@H](c2cc(NC(=O)Cc3ccccc3S(C)(=O)=O)n[nH]2)C1
0.29

Fill in the recorded Ki for this molecule, with CDK2/Cyclin E1 full length (Homo sapiens (Human), UniProt P24941) as test system: CCNC(=O)O[C@@H]1CC[C@H](c2cc(NC(=O)Cc3ccno3)n[nH]2)C1
3.72

Hi! What's the reported Ki for Cc1ncc(CC(=O)Nc2cc([C@@H]3CC[C@H](OC(=O)N[C@H]4CC[C@@](C)(O)CC4)C3)[nH]n2)s1 on CDK2/Cyclin E1 full length (Homo sapiens (Human), UniProt P24941)?
0.43

Checklist item: Ki tested on CDK2/Cyclin E1 full length (Homo sapiens (Human), UniProt P24941), entry Cc1nc(CC(=O)Nc2cc([C@H]3CC[C@@H](OC(=O)NC4(C)CC4)C3)[nH]n2)ccc1Cl , value?
0.37

Provide value of Ki for this record tested with CDK2/Cyclin E1 full length (Homo sapiens (Human), UniProt P24941): Cc1cccc(CC(=O)Nc2cc([C@H]3CC[C@@H](OC(=O)NC4(C)CC4)C3)[nH]n2)n1
0.53

Reported Ki for CDK2/Cyclin E1 full length (Homo sapiens (Human), UniProt P24941), given C[C@]1(O)CC[C@@H](NC(=O)O[C@@H]2CC[C@H](c3cc(NC(=O)Cc4cc(F)cc(F)c4)n[nH]3)C2)CC1 ?
0.37
